system_name: T1, LGR7 (UniProt Q9HBX9 1-757, limits assumed)
T1 sequence (looked up): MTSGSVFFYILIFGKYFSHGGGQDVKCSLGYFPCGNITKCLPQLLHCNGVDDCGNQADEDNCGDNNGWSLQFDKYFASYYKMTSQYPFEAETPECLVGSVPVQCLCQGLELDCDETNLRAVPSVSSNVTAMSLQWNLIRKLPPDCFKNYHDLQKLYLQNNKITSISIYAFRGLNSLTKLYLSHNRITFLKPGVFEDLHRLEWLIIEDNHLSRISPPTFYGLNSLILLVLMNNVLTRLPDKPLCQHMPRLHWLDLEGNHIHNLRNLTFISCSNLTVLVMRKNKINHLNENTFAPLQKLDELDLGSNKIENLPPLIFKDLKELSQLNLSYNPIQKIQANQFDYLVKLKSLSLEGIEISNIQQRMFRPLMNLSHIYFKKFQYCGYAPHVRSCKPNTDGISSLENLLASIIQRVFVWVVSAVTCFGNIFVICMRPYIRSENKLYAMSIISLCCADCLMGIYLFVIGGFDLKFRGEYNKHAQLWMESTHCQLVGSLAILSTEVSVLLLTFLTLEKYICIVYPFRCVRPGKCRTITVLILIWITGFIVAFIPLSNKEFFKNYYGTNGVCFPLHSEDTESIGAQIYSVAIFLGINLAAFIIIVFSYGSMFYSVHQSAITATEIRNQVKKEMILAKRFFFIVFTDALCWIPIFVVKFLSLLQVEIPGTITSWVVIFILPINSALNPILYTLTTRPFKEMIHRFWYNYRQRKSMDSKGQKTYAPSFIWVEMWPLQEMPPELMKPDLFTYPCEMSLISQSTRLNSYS
method_summary: cell-based or functional assay
Where no end group is shown, it is not given here. The star is where a group is joined. FA1 = tetradecanamide (myristoyl) lipid attached through an ethoxy-ethoxy-ethyl acetamide linker, made from Br-FA1, N-(2-(2-(2-(2-bromoacetamido)ethoxy)ethoxy)ethyl)tetradecanamide, CCCCCCCCCCCCCC(=O)NCCOCCOCCNC(=O)C*; FA2 = not defined here; FA3 = not defined here
Please go through the items and note down their Activity, fold drop compared to relaxin.
One number for each entry, in fold.

binder	Activity, fold drop compared to relaxin [fold]
Relaxin-B-D1AM4KS29C-FA2 (ligand, ends and bridges not checked; also: lipid conjugate FA2, site not given here) chain 1: ASWKEEVIKLCGRELVRAQIAICGMSTWC chain 2: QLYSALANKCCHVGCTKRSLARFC	40
Relaxin-B-D1A, A-Q1C-FA1 (ligand, ends and bridges not checked; also: A and B chains disulfide-linked, pairing not given here) chain 1: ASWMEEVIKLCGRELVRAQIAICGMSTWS chain 2: C(FA1)LYSALANKCCHVGCTKRSLARFC	10
Relaxin-B-D1A, A-A5C-FA2 (ligand, ends and bridges not checked; also: A and B chains disulfide-linked, pairing not given here) chain 1: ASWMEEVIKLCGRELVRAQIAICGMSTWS chain 2: QLYSC(FA2)LANKCCHVGCTKRSLARFC	25
Relaxin-B-D1A, A-R18C-FA1 (ligand, ends and bridges not checked; also: A and B chains disulfide-linked, pairing not given here) chain 1: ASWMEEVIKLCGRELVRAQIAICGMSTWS chain 2: QLYSALANKCCHVGCTKC(FA1)SLARFC	15
Relaxin-B-D1A, A-A5C-FA3 (ligand, ends and bridges not checked; also: A and B chains disulfide-linked, pairing not given here) chain 1: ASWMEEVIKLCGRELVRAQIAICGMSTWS chain 2: QLYSC(FA3)LANKCCHVGCTKRSLARFC	15

Below are some binders; for each one, tell me its Activity, fold drop compared to relaxin.
1. Relaxin-B-D1AM25KS29C-FA2 (ligand, ends and bridges not checked; also: lipid conjugate FA2, site not given here) chain 1: ASWMEEVIKLCGRELVRAQIAICGKSTWC chain 2: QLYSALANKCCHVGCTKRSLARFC
2. Relaxin-B-D1AM25KM4K, A-Q1AH12K, B-S29C-FA3 (ligand, ends and bridges not checked; also: A and B chains disulfide-linked, pairing not given here) chain 1: ASWKEEVIKLCGRELVRAQIAICGKSTWC(FA3) chain 2: ALYSALANKCCKVGCTKRSLARFC
3. Relaxin-B-D1A (ligand, ends and bridges not checked; cysteine pairing not given here) chain 1: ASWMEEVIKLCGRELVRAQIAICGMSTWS chain 2: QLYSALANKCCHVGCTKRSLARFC
4. Relaxin-A-H12K, B-D1AS29C-FA2 (ligand, ends and bridges not checked; also: A and B chains disulfide-linked, pairing not given here) chain 1: ASWMEEVIKLCGRELVRAQIAICGMSTWC(FA2) chain 2: QLYSALANKCCKVGCTKRSLARFC
5. Relaxin-B-D1A, A-Q1C-FA3 (ligand, ends and bridges not checked; also: A and B chains disulfide-linked, pairing not given here) chain 1: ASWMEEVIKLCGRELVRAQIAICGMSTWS chain 2: C(FA3)LYSALANKCCHVGCTKRSLARFC
6. Relaxin-B-D1A, A-R18C-FA3 (ligand, ends and bridges not checked; also: A and B chains disulfide-linked, pairing not given here) chain 1: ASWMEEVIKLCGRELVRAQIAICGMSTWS chain 2: QLYSALANKCCHVGCTKC(FA3)SLARFC
7. Relaxin-B-D1AS29C-XTEN288 (ligand) chain 1: ASWMEEVIKLCGRELVRAQIAICGMSTWC chain 2: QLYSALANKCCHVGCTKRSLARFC chain 3: SAGSPTGPGSEPATSGSETPGTSESATPESGPGSEPATSGSETPGTSESATPESGPGTSTEPSEGSAPGSPAGSPTSTEEGTSESATPESGPGSEPATSGSETPGTSESATPESGPGSPAGSPTSTEEGSPAGSPTSTEEGTSTEPSEGSAPGTSESATPESGPGTSESATPESGPGTSESATPESGPGSEPATSGSETPGSEPATSGSETPGSPAGSPTSTEEGTSTEPSEGSAPGTSTEPSEGSAPGSEPATSGSETPGTSESATPESGPGTSTEPSEGSAPSASR

Reply |
1: 48; 2: 150; 3: 0; 4: 16; 5: 25; 6: 30; 7: 20

Ask | Item Relaxin-B-D1A, A-Q1C-FA2 (ligand, ends and bridges not checked; also: A and B chains disulfide-linked, pairing not given here) chain 1: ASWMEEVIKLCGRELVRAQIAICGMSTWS chain 2: C(FA2)LYSALANKCCHVGCTKRSLARFC : provide Activity, fold drop compared to relaxin
Reply | 15
